Where do these numbers come from? They come from PubChem BioAssay (NCI).

Known growth of a selection of compounds
- Test system: OVCAR-5 ovarian
- procedure.details: NCI-60 one-dose screen, 48 h (100 = growth as untreated, 0 = no growth, -100 = all killed)
- run.parameters: 10 µM unless noted
About 83,000 compounds went through this panel and 20% of them were active in at least one assay; those are over-represented in the sample as a whole. Active and inactive are the calls of the source. How the source made its calls: active means growth percent below 10; inactive means the rest.

Worked examples follow.
Cc1ccc(Nc2nc(N)nc(Nc3ccc4ccccc4c3)n2)cc1 ... 79.9% (inactive)
COc1cc(OC)c(/C=C/S(=O)(=O)Cc2cnc(OC)c(N)c2)c(OC)c1 ... 55.2% (inactive)
O=C1C(=O)N(CCCCn2cc(CO)nn2)c2ccccc21 ... 98.6% (inactive)
CC/C=C\C[C@H](F)C/C=C1/C(=O)C=C[C@@H]1C/C=C\CCCC(=O)O ... 86.1% (inactive)

Kindly consider the entry below.
## Task Fill in reported growth for this entry: "Cc1ccc2cnc(N)c(C#Cc3cncc(C(=O)Nc4ccc(CN5CCN(C)CC5)c(C(F)(F)F)c4)c3)c2c1"
## Result -89% (active)

* * *

- System: 786-0 renal
- procedure.details: NCI-60 one-dose screen, 48 h
- run.parameters: 10 µM unless noted
The panel holds about 83,000 compounds, 20% with a hit somewhere; the sample as a whole holds those more often. Calls of active or inactive are those of the source. Rule for the calls: active = growth percent below 10; inactive = the rest.
Please answer using one outcome listed in 1 (active), 0 (inactive)

Below are worked cases with known answers.
O=C(CN1CCN(c2cc3c(cc2F)c(=O)c(C(=O)N/N=C/c2ccccc2)cn3C2CC2)CC1)N/N=C\c1ccccc1 ... 0
Oc1ccccc1/C=N/Nc1ccc2ccccc2n1 ... 0
C=C1CCC2C3(C)COC(c4ccc(SC)cc4)OC3CCC2(C)C1C/C=C1/C(=O)OCC1O (centres undefined) ... 0
NS(=O)(=O)c1ccc(-n2ncc3c(=O)[nH]c(CN4CCN(c5cc6c(cc5F)c(=O)c(C(=O)O)cn6C5CC5)CC4)nc32)cc1 ... 0
CCCCCCCCCCCCCCCCCCSC1=CC(=O)C(OC)=C(OC)C1=O ... 0
OC(c1cc(-c2ccccc2)nc2ccc(Cl)cc12)C1CCCCN1 (centres undefined) ... 0
CNCc1cccc2c1OCCOCCOCCN(C)S(=O)(=O)c1ccc(cc1)-c1cnc(N)c(n1)C(=O)N2 ... 1
CC(C)c1c(C(=O)Nc2ccccc2)c(-c2ccccc2)c(-c2ccc(F)cc2)n1CC[C@@H]1CC=CC(=O)O1 ... 1
CCCCCCCCCC(=O)Oc1ccc(/C(=C(/C)Cc2cccc(OC)c2)c2ccc(OCCN(C)C)cc2)cc1 ... 0
CCCCCN(CCCCC)CCC[C@@H](C)[C@H]1CC[C@H]2[C@@H]3[C@H](OCCCN)C[C@@H]4C[C@H](OCCCN)CC[C@]4(C)[C@H]3C[C@H](OCCCN)[C@]12C ... 0

## Task Which result was noted for this molecule in the test: "Brc1cccc(-c2nc(-c3ccc4c(c3)OCCO4)co2)c1"
## Result 0

## Task What call does the record list for "CC(C)(C)n1cc(-c2ccnc(NCCCNS(=O)(=O)c3cccc4ccccc34)c2)c(-c2cccc(O)c2)n1" ?
## Result 1

## Task What was the test verdict on "Nc1c(C(=O)Nc2ccccc2Cl)sc2nc3c(cc12)CCCCCC3" ?
## Result 1
